Experiment: Water solubility at neutral pH in PBS containing Ca^2+/Mg^2+
Format: physicochemical
Conditions: pbs with ca2+/mg2+; Table 3; water-solubility at neutral pH in phosphate buffered saline containing Ca^2+/Mg^2+
EXPERIMENTAL_ENDPOINT: solubility (µg/mL)
Lab book: enter the figure in µg/mL, no units written.

Lab note: CN[C@@H]1[C@H](O[C@@H]2OC[C@@H](O)[C@H](O)[C@H]2O)[C@@H](O)[C@H](O[C@H]2c3cc(C)c(C(=O)N[C@H](C)C(=O)O)c(O)c3-c3c(cc4c(c3O)C(=O)c3cc(OC)cc(O)c3C4=O)[C@@H]2O)O[C@@H]1C [Pradimicin A, reference compound] gave solubility of 20
